Some compounds, each annotated with its measured Summary % reduction in MIC 90 using Tricide.
# System: Fusarium sp. 2
# assay.comment: microbe, parasite or virus in culture
# Format: cell-based
reported.property: Summary % reduction in MIC 90 using Tricide

>  <compound>
CC(=O)N1CCN(c2ccc(OCC3COC(Cn4ccnc4)(c4ccc(Cl)cc4Cl)O3)cc2)CC1 (stereo not shown) [Ketoconazole, ketoconazole]

>  <result>
99.9%-100%

$$$$
>  <compound>
Clc1ccc(COC(Cn2ccnc2)c2ccc(Cl)cc2Cl)c(Cl)c1 (stereo not shown) [Miconazole, miconazole]

>  <result>
99.9%-100%

$$$$
>  <compound>
CCC(C)n1ncn(-c2ccc(N3CCN(c4ccc(OCC5COC(Cn6cncn6)(c6ccc(Cl)cc6Cl)O5)cc4)CC3)cc2)c1=O (stereo not shown) [Itraconazole, itraconazole]

>  <result>
>99.9%-100%

$$$$
>  <compound>
C[C@@H]1C/C=C/C=C/C=C/C=C/[C@H](O[C@@H]2O[C@H](C)[C@@H](O)[C@H](N)[C@@H]2O)C[C@@H]2O[C@](O)(C[C@@H](O)C[C@H]3O[C@@H]3/C=C/C(=O)O1)C[C@H](O)[C@H]2C(=O)O [Natamycin, natamycin]

>  <result>
>99%-100%

$$$$

###

# Tested on: Fusarium sp. 1
# assay.comment: microbe, parasite or virus in culture
# Type: cell-based
# condition.details: Fasarium sp. 1
reported.property: Summary % reduction in MIC 50 using Tricide

>  <molecule>
CCC(C)n1ncn(-c2ccc(N3CCN(c4ccc(OCC5COC(Cn6cncn6)(c6ccc(Cl)cc6Cl)O5)cc4)CC3)cc2)c1=O (stereo not shown)

>  <test.system>
Fusarium sp. 1

>  <result>
>99.9%-100%

$$$$
>  <molecule>
CC(=O)N1CCN(c2ccc(OCC3COC(Cn4ccnc4)(c4ccc(Cl)cc4Cl)O3)cc2)CC1 (stereo not shown)

>  <test.system>
Fusarium sp. 1

>  <result>
>99.9%-100%

$$$$
>  <molecule>
Clc1ccc(COC(Cn2ccnc2)c2ccc(Cl)cc2Cl)c(Cl)c1 (stereo not shown)

>  <test.system>
Fusarium sp. 1

>  <result>
>99.8%-100%

$$$$
>  <molecule>
C[C@@H]1C/C=C/C=C/C=C/C=C/[C@H](O[C@@H]2O[C@H](C)[C@@H](O)[C@H](N)[C@@H]2O)C[C@@H]2O[C@](O)(C[C@@H](O)C[C@H]3O[C@@H]3/C=C/C(=O)O1)C[C@H](O)[C@H]2C(=O)O

>  <test.system>
Fusarium sp. 1;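 also: mean MIC 50 and MIC 90 values against fungal isolates, with percent decrease in MIC when the antifungal is combined with Tricide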

>  <result>
100%

$$$$

###

Some molecules, each annotated with its measured % decrease MIC 50.
# System: Curvularia sp.
# assay.comment: Antifungal MIC 50 / MIC 90 alone and combined with Tricide;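 also: antifungal MIC 50 and MIC 90 values against fungal isolates, with percent figures expressing how much the MIC fell once Tricide was added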
# Type: cell-based
# condition.details: Curvilaria sp.; Tricide 200 ug/ml
reported.property: % decrease MIC 50

>  <molecule>
C[C@@H]1C/C=C/C=C/C=C/C=C/[C@H](O[C@@H]2O[C@H](C)[C@@H](O)[C@H](N)[C@@H]2O)C[C@@H]2O[C@](O)(C[C@@H](O)C[C@H]3O[C@@H]3/C=C/C(=O)O1)C[C@H](O)[C@H]2C(=O)O [Natamycin, natamycin]

>  <result>
100%

$$$$
>  <molecule>
Clc1ccc(COC(Cn2ccnc2)c2ccc(Cl)cc2Cl)c(Cl)c1 (stereo not shown) [Miconazole, miconazole]

>  <result>
99-100% ^

$$$$
>  <molecule>
CCC(C)n1ncn(-c2ccc(N3CCN(c4ccc(OCC5COC(Cn6cncn6)(c6ccc(Cl)cc6Cl)O5)cc4)CC3)cc2)c1=O (stereo not shown) [Itraconazole, itraconazole]

>  <result>
97-100% ^

$$$$
>  <molecule>
CC(=O)N1CCN(c2ccc(OCC3COC(Cn4ccnc4)(c4ccc(Cl)cc4Cl)O3)cc2)CC1 (stereo not shown) [Ketoconazole, ketoconazole]

>  <result>
96.3-100%^

$$$$

###

# Tested on: Candidia albicans ATCC 90028
# assay.comment: Antifungal MIC 50 / MIC 90 alone and combined with Tricide
# Assay type: cell-based, Candida albicans
# condition.details: Candida albicans; Tricide […]

>  <molecule>
CCC(C)n1ncn(-c2ccc(N3CCN(c4ccc(OCC5COC(Cn6cncn6)(c6ccc(Cl)cc6Cl)O5)cc4)CC3)cc2)c1=O (stereo not shown)

>  <test.system>
Candidia albicans ATCC 90028

>  <MIC 50 combined with Tricide [µg/mL]>
0

$$$$
>  <molecule>
CC(=O)N1CCN(c2ccc(OCC3COC(Cn4ccnc4)(c4ccc(Cl)cc4Cl)O3)cc2)CC1 (stereo not shown)

>  <test.system>
Candidia albicans ATCC 90028

>  <MIC 50 combined with Tricide [µg/mL]>
0

$$$$
>  <molecule>
Clc1ccc(COC(Cn2ccnc2)c2ccc(Cl)cc2Cl)c(Cl)c1 (stereo not shown)

>  <test.system>
Candidia albicans ATCC 90028

>  <MIC 50 combined with Tricide [µg/mL]>
0

$$$$

###

# Test system: Fusarium sp. 3
# assay.comment: microbe, parasite or virus in culture
# Assay type: cell-based
# condition.details: antifungal alone
Some compounds, each annotated with its measured MIC90.
reported.property: MIC90

>  <compound>
C[C@@H]1C/C=C/C=C/C=C/C=C/[C@H](O[C@@H]2O[C@H](C)[C@@H](O)[C@H](N)[C@@H]2O)C[C@@H]2O[C@](O)(C[C@@H](O)C[C@H]3O[C@@H]3/C=C/C(=O)O1)C[C@H](O)[C@H]2C(=O)O

>  <test.system>
Fusarium sp. 3

>  <reported.property>
MIC90

>  <result>
> 19.2 mg/L

$$$$
>  <compound>
CCC(C)n1ncn(-c2ccc(N3CCN(c4ccc(OCC5COC(Cn6cncn6)(c6ccc(Cl)cc6Cl)O5)cc4)CC3)cc2)c1=O (stereo not shown)

>  <test.system>
Fusarium sp. 3

>  <reported.property>
MIC90

>  <result>
> 128 mg/L

$$$$
>  <compound>
Clc1ccc(COC(Cn2ccnc2)c2ccc(Cl)cc2Cl)c(Cl)c1 (stereo not shown)

>  <test.system>
Fusarium sp. 3

>  <reported.property>
MIC90

>  <result>
> 128 mg/L

$$$$
>  <compound>
CC(=O)N1CCN(c2ccc(OCC3COC(Cn4ccnc4)(c4ccc(Cl)cc4Cl)O3)cc2)CC1 (stereo not shown)

>  <test.system>
Fusarium sp. 3

>  <reported.property>
MIC90

>  <result>
> 128 mg/L

$$$$

###

# System: Candidia albicans ATCC 90028
# assay.comment: Antifungal MIC 50 / MIC 90 alone and combined with Tricide
# Format: cell-based, Candida albicans
# condition.details: Candida albicans; Tricide […]

>  <compound>
CC(=O)N1CCN(c2ccc(OCC3COC(Cn4ccnc4)(c4ccc(Cl)cc4Cl)O3)cc2)CC1 (stereo not shown)

>  <test.system>
Candidia albicans ATCC 90028

>  <% decrease MIC 90 / %>
100

$$$$
>  <compound>
CCC(C)n1ncn(-c2ccc(N3CCN(c4ccc(OCC5COC(Cn6cncn6)(c6ccc(Cl)cc6Cl)O5)cc4)CC3)cc2)c1=O (stereo not shown)

>  <test.system>
Candidia albicans ATCC 90028

>  <% decrease MIC 90 / %>
100

$$$$
>  <compound>
Clc1ccc(COC(Cn2ccnc2)c2ccc(Cl)cc2Cl)c(Cl)c1 (stereo not shown)

>  <test.system>
Candidia albicans ATCC 90028

>  <% decrease MIC 90 / %>
100

$$$$
>  <compound>
C[C@@H]1C/C=C/C=C/C=C/C=C/[C@H](O[C@@H]2O[C@H](C)[C@@H](O)[C@H](N)[C@@H]2O)C[C@@H]2O[C@](O)(C[C@@H](O)C[C@H]3O[C@@H]3/C=C/C(=O)O1)C[C@H](O)[C@H]2C(=O)O

>  <test.system>
Candidia albicans ATCC 90028

>  <% decrease MIC 90 / %>
90

$$$$

###

# System: Candidia albicans ATCC 90028
# assay.comment: Antifungal MIC 50 / MIC 90 alone and combined with Tricide
# Assay type: cell-based, Candida albicans
# condition.details: Candida albicans; Tricide […]

>  <molecule>
CC(=O)N1CCN(c2ccc(OCC3COC(Cn4ccnc4)(c4ccc(Cl)cc4Cl)O3)cc2)CC1 (stereo not shown)

>  <% decrease MIC 50, %>
100

$$$$
>  <molecule>
CCC(C)n1ncn(-c2ccc(N3CCN(c4ccc(OCC5COC(Cn6cncn6)(c6ccc(Cl)cc6Cl)O5)cc4)CC3)cc2)c1=O (stereo not shown)

>  <% decrease MIC 50, %>
100

$$$$
>  <molecule>
Clc1ccc(COC(Cn2ccnc2)c2ccc(Cl)cc2Cl)c(Cl)c1 (stereo not shown)

>  <% decrease MIC 50, %>
100

$$$$
>  <molecule>
C[C@@H]1C/C=C/C=C/C=C/C=C/[C@H](O[C@@H]2O[C@H](C)[C@@H](O)[C@H](N)[C@@H]2O)C[C@@H]2O[C@](O)(C[C@@H](O)C[C@H]3O[C@@H]3/C=C/C(=O)O1)C[C@H](O)[C@H]2C(=O)O

>  <% decrease MIC 50, %>
99.3

$$$$

Data origin: patent US20100298252A1
